- Tested on: Klebsiella pneumoniae (KPC, ATCC BAA-1705)
- ASSAY COMMENT: microbe, parasite or virus in culture
- TEST CONTEXT: ATCCBAA1705, 24 h, read-out: Klebsiella pneumoniae (ATCC BAA-1705) MIC, Table 30, [R5W4K] (IFX-315), antibiotics alone and PHY-MIX (1:1 w/w)
MEASURE: MIC (µg/mL)
Only the number, expressed in µg/mL, is required.

Would you please look over these solved cases?
SMILES REPRESENTATION	MEASURE	UNIT ABBREVIATION	ENDPOINT RESULT
NC[C@H]1O[C@H](O[C@H]2[C@H](O)[C@@H](O[C@H]3O[C@H](CO)[C@@H](O)[C@H](N)[C@H]3O)[C@H](N)C[C@@H]2N)[C@H](O)[C@@H](O)[C@@H]1O	MIC	µg/mL	64
C[C@H]1COc2c(N3CCN(C)CC3)c(F)cc3c(=O)c(C(=O)O)cn1c23	MIC	µg/mL	64

Now for another entry.
For the molecule "NC[C@H]1O[C@H](O[C@H]2[C@H](O)[C@@H](O[C@H]3O[C@H](CO)[C@@H](O)[C@H](N)[C@H]3O)[C@H](N)C[C@@H]2N)[C@H](N)C[C@@H]1O" , give its measured MIC value. 16

Values compiled from patent US20220289794A1.
